measuredTarget: human LPA1 (Homo sapiens, UniProt Q92633)
Construct: expressed in transfected cells; host or cells: Chinese hamster ovary (CHO) cells
Sequence (Q92633 whole entry): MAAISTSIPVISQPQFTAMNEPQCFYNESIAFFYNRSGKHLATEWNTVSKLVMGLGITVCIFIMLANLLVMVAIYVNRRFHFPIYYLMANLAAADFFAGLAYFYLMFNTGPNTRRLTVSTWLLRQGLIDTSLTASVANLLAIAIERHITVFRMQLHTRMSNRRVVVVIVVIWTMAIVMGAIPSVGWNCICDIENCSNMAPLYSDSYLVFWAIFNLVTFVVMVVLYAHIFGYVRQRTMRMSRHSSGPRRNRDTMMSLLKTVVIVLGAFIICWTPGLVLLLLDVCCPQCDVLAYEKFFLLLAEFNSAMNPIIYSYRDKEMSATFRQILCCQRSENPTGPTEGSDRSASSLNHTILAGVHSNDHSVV
measurementProtocol: LPA1 functional antagonist assay (LPA-induced calcium flux)
Type: cell-based
conditionsUsed: read-out: hLPA1 IC50
measuredEndpoint: log10 IC50 (log10 of the value in nM)
In plain terms, each number is the log10 of measured IC50 in nM.

Known log10 IC50 results, listed for orientation:
CCCN(CC)C(=O)OCc1c(-c2ccc(O[C@H]3CCC[C@H](C(=O)O)C3)c(C)n2)nnn1C [Example 128] : 2.20
CCC(CC)N(C)C(=O)OCc1c(-c2ccc(O[C@H]3CCC[C@H](C(=O)O)C3)c(C)n2)nnn1C [Example 83] : 1.96

# get_value(readout='log10 IC50', item= CN(C(=O)OCc1c(-c2ccc(O[C@H]3CCC[C@H](C(=O)O)C3)cc2)nnn1C)C(C1CC1)C1CC1 [Example 74] )
2.00

Cool, now CCC1(N(C)C(=O)OCc2c(-c3ccc(O[C@H]4CCC[C@H](C(=O)O)C4)c(C)n3)nnn2C)CCC1 [Example 133]
2.24

Moving on to the next compound: Cc1nc(-c2nnn(C)c2COC(=O)N2CC(C)(C)C2)ccc1O[C@H]1CCC[C@H](C(=O)O)C1 [Example 155]
2.24

Param item: CN(C(=O)OCc1c(-c2ccc(O[C@H]3CCC[C@H](C(=O)O)C3)cn2)nnn1C)C1CCCC1 (racemic) [Example 18]
1.32

Please answer likewise for CCCC1(N(C)C(=O)OCc2c(-c3ccc(O[C@H]4CCC[C@H](C(=O)O)C4)c(C)n3)nnn2C)CCC1 [Example 132]
2.26

Now this one: Cc1nc(-c2nnn(C)c2COC(=O)N(C)C(C)C2CCC2)ccc1O[C@H]1CCC[C@H](C(=O)O)C1 (mixture of isomers) [Example 20]
1.45
